# Assayed target: T1, amino acid residues 26-148 of human ANGPTL4 fused in-line to mouse IgG2a (hANGPTL4-mFc) (human)
# T1 construct: contains the N-terminal coiled-coil region
# T1 chain: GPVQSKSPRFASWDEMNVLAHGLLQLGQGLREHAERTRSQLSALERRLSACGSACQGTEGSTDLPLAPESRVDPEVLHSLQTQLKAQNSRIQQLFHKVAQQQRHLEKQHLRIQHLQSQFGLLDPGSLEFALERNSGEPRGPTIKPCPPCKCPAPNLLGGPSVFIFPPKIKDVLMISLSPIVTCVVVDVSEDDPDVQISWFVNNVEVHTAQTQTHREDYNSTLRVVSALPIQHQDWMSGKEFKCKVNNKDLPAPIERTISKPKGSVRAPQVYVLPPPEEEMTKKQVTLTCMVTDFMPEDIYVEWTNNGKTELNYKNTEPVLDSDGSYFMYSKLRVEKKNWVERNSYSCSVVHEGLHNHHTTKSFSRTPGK
# Assay info: SPR (Biacore), 25° C., pH 7.2, antigen captured by anti-mFc
Measured property: pKd
Units for pKd: none; it is -log10 of a concentration expressed in mol/L.

Consider the reported pKd for these binders:
Task: Can you share its pKd? I mean this binder: H1H284P Fab fragment (Fab, V domains shown, Fab made by papain digestion of H1H284P (IgG1); also called H1H284 Fab) VH: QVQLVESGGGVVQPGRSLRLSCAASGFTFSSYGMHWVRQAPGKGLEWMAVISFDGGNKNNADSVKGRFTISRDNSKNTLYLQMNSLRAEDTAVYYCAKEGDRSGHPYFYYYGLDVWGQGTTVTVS VL: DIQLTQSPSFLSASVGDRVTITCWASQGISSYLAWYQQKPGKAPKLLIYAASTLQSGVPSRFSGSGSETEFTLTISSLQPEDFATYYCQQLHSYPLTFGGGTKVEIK
Result: 9.08

Task: Same for H1H268P Fab fragment (Fab, V domains shown, Fab made by papain digestion of H1H268P (IgG1); also called H1H268 Fab) VH: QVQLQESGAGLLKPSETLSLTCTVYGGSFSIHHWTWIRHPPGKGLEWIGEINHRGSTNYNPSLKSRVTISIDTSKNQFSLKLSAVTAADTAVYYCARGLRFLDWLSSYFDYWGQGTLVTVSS VL: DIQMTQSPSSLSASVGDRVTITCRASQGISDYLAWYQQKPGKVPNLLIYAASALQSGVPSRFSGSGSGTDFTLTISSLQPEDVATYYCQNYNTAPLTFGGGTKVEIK
Result: 8.70

Now consider the entry below.
Task: Consider the binder H1H268P (antibody, V domains shown, also called entire H1H268 mAb; Full mAb) VH: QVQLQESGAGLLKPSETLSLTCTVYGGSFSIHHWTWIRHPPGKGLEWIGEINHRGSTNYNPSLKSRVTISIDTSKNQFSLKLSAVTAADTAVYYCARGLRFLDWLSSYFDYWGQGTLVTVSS VL: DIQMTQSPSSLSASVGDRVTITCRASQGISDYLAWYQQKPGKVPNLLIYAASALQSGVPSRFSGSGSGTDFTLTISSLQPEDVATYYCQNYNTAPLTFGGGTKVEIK and give its measured pKd.
Result: 9.20
